Molecular target: KPC-2 β-lactamase (Class A carbapenemase) (Klebsiella pneumoniae, UniProt Q9F663)
Sequence (Q9F663 25-293, looked up): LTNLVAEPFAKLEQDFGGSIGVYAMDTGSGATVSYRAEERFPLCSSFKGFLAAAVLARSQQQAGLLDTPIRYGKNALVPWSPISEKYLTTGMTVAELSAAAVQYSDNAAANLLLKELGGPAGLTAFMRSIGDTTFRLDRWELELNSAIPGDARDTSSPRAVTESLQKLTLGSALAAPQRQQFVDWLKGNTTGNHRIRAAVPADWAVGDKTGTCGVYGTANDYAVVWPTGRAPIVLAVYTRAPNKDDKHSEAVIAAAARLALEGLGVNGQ
Test: β-Lactamase inhibition, KPC-2
Settings: imipenem substrate, 300 nm; 15 min preincubation at 37° C., PBS pH 7.4
Give IC50 for every item shown.

Take a look at these entries with their results.
O=C(O)c1cccc2c1OB(O)[C@@H](NC(=O)C1CN(c3ncccn3)C1)C2 = < 100 nM
NCCN1CCN(CC(=O)N[C@H]2Cc3cccc(C(=O)O)c3OB2O)C(=O)C1 = 100 to 1000 nM
COC1CN(CC(=O)N[C@H]2Cc3cccc(C(=O)O)c3OB2O)CCC1N (some centres unmarked) = 100 to 1000 nM

Kindly give each listed record's IC50.
1. N#CCN1CCC(CC(=O)N[C@H]2Cc3cccc(C(=O)O)c3OB2O)CC1
2. O=C(CNC1CCNCC1)N[C@H]1Cc2cccc(C(=O)O)c2OB1O

## Output
["100 to 1000 nM", "100 to 1000 nM"]

----------
Give pIC50 for every item shown.
Target: OXA-1 β-lactamase (Class D oxacillinase) (Escherichia coli)
Sequence (P13661 26-276): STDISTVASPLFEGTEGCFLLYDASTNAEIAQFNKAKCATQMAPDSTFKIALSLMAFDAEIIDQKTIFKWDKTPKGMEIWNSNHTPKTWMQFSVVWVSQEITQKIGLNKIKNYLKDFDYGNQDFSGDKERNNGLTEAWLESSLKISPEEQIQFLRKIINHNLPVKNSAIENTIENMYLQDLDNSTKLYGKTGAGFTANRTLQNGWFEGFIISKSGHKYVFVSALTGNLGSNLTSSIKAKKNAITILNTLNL
Assay: β-Lactamase inhibition, OXA-1
Conditions: nitrocefin 100 μM, 486 nm; 15 min preincubation at 37° C., PBS pH 7.4
pIC50: −log10 of the molar value.

Take a look at these entries with their results.
NCCN1CCN(CC(=O)N[C@H]2Cc3cccc(C(=O)O)c3OB2O)C(=O)C1 [Example 36] = > 7.00
COC1CN(CC(=O)N[C@H]2Cc3cccc(C(=O)O)c3OB2O)CCC1N (some centres unmarked) [Example 21] = > 7.00
CN(C)c1ccc(NC(=O)N2CC(C(=O)N[C@H]3Cc4cccc(C(=O)O)c4OB3O)C2)cc1 [Example 47] = 6.00 to 7.00
O=C(O)c1cccc2c1OB(O)[C@@H](NC(=O)C1CN(c3ncccn3)C1)C2 [Example 48] = > 7.00
NCCN1CCC(CCC(=O)N[C@H]2Cc3cccc(C(=O)O)c3OB2O)CC1 [Example 31] = > 7.00
CN1CCC(C(=O)N[C@H]2Cc3cccc(C(=O)O)c3OB2O)(N(C)C)CC1 [Example 51] = 6.00 to 7.00

Kindly give each listed record's pIC50.
1. O=C(CN1CCN(CCO)CC1)N[C@H]1Cc2cccc(C(=O)O)c2OB1O [Example 18]
2. CN(C)CCN1CCN(CC(=O)N[C@H]2Cc3cccc(C(=O)O)c3OB2O)CC1 [Example 3]

## Output
> 7.00
6.00 to 7.00

----------
Give pIC50 for every item shown.
Target: VIM-2 metallo-β-lactamase (Class B) (Pseudomonas aeruginosa)
Assay: β-Lactamase inhibition, VIM-2
Conditions: nitrocefin 100 μM, 486 nm; 15 min preincubation at 37° C., PBS pH 7.4
pIC50: −log10 of the molar value.

NCC1CCN(CC(=O)N[C@H]2Cc3cccc(C(=O)O)c3OB2O)CC1 = 6.00 to 7.00
N[C@H]1CCCN(CC(=O)N[C@H]2Cc3cccc(C(=O)O)c3OB2O)C1 = 5.00 to 6.00
CN(C)CCN1CCN(CC(=O)N[C@H]2Cc3cccc(C(=O)O)c3OB2O)CC1 = 5.00 to 6.00
CN(C)c1ccc(NC(=O)N2CC(C(=O)N[C@H]3Cc4cccc(C(=O)O)c4OB3O)C2)cc1 = 6.00 to 7.00
O=C(CN1CCN(c2ccccn2)CC1)N[C@H]1Cc2cccc(C(=O)O)c2OB1O = 5.00 to 6.00

Kindly give each listed record's pIC50.
1. NCC(=O)N1CCN(CC(=O)N[C@H]2Cc3cccc(C(=O)O)c3OB2O)CC1
2. O=C(CN1CCC(O)CC1)N[C@H]1Cc2cccc(C(=O)O)c2OB1O
3. NC1(C(=O)N[C@H]2Cc3cccc(C(=O)O)c3OB2O)CCNCC1

## Output
["5.00 to 6.00", "6.00 to 7.00", "5.00 to 6.00"]

For reference, reported pIC50 for NCCN1CCN(CC(=O)N[C@H]2Cc3cccc(C(=O)O)c3OB2O)CC1 stands at 5.00 to 6.00

----------
Molecular target: OXA-1 β-lactamase (Class D oxacillinase) (Escherichia coli)
Construct: made in house; host or cells: E. coli BL21(DE3)
Assay: β-Lactamase inhibition, OXA-1
Format: biochemical
Settings: nitrocefin 100 μM, 486 nm; 15 min preincubation at 37° C., PBS pH 7.4
measured parameter: IC50

NCCN1CCC(CC(=O)N[C@H]2Cc3cccc(C(=O)O)c3OB2O)CC1 = < 100 nM
NC1CN(CC(=O)N[C@H]2Cc3cccc(C(=O)O)c3OB2O)CCC1O (some centres unmarked) = 100 to 1000 nM
O=C(CC1CCNCC1)N[C@H]1Cc2cccc(C(=O)O)c2OB1O = 100 to 1000 nM
NCC1CCN(CC(=O)N[C@H]2Cc3cccc(C(=O)O)c3OB2O)CC1 = < 100 nM

Kindly give each listed record's IC50.
1. NCC(=O)N1CCN(CC(=O)N[C@H]2Cc3cccc(C(=O)O)c3OB2O)CC1
2. NC1(C(=O)N[C@H]2Cc3cccc(C(=O)O)c3OB2O)CCNCC1
3. O=C(O)c1cccc2c1OB(O)[C@@H](NC(=O)C1CCNCC1)C2
4. N[C@H]1CCN(CC(=O)N[C@H]2Cc3cccc(C(=O)O)c3OB2O)C1
5. O=C(O)CN1CCN(CC(=O)N[C@H]2Cc3cccc(C(=O)O)c3OB2O)CC1
6. O=C(CN1CCNCC1=O)N[C@H]1Cc2cccc(C(=O)O)c2OB1O
7. CN1CCC(CC(=O)N[C@H]2Cc3cccc(C(=O)O)c3OB2O)CC1

## Output
1: < 100 nM; 2: < 100 nM; 3: < 100 nM; 4: 100 to 1000 nM; 5: < 100 nM; 6: < 100 nM; 7: 100 to 1000 nM

Kindly give each listed record's IC50.
1. O=C(CN1CCN(c2ccccn2)CC1)N[C@H]1Cc2cccc(C(=O)O)c2OB1O
2. O=C(CNC1CCNCC1)N[C@H]1Cc2cccc(C(=O)O)c2OB1O

## Output
1: 100 to 1000 nM; 2: < 100 nM

Kindly give each listed record's IC50.
1. NCC1CCCN(CC(=O)N[C@H]2Cc3cccc(C(=O)O)c3OB2O)C1 (some centres unmarked)
2. NC1CCN(CC(=O)N[C@H]2Cc3cccc(C(=O)O)c3OB2O)CC1O (some centres unmarked)
3. CNC1CCN(CC(=O)N[C@H]2Cc3cccc(C(=O)O)c3OB2O)CC1
4. NCCN1CCC(NCC(=O)N[C@H]2Cc3cccc(C(=O)O)c3OB2O)CC1
5. CN(CC(=O)N[C@H]1Cc2cccc(C(=O)O)c2OB1O)C1CCNCC1
6. N[C@@H]1CCN(CC(=O)N[C@H]2Cc3cccc(C(=O)O)c3OB2O)C1
7. O=C(CN1CCN(c2nccs2)CC1)N[C@H]1Cc2cccc(C(=O)O)c2OB1O
8. O=C(O)c1cccc2c1OB(O)[C@@H](NC(=O)C1CNC1)C2

## Output
1: < 100 nM; 2: 100 to 1000 nM; 3: 100 to 1000 nM; 4: < 100 nM; 5: < 100 nM; 6: 100 to 1000 nM; 7: 100 to 1000 nM; 8: 100 to 1000 nM

Kindly give each listed record's IC50.
1. NC1CCN(CC(=O)N[C@H]2Cc3cccc(C(=O)O)c3OB2O)CC1
2. O=C(CN1CCC(O)CC1)N[C@H]1Cc2cccc(C(=O)O)c2OB1O
3. O=C(O)c1cccc2c1OB(O)[C@@H](NC(=O)C1CNCCN1)C2 (some centres unmarked)
4. NCCNC1CCN(CC(=O)N[C@H]2Cc3cccc(C(=O)O)c3OB2O)CC1

## Output
100 to 1000 nM
< 100 nM
< 100 nM
< 100 nM

For reference, reported IC50 for N=C(N)NCC1CCCN(CC(=O)N[C@H]2Cc3cccc(C(=O)O)c3OB2O)C1 (some centres unmarked) stands at 100 to 1000 nM

----------
Give IC50 for every item shown.
Target: SHV-5 β-lactamase (Class A ESBL) (Klebsiella pneumoniae, UniProt P0A3M1)
Sequence (P0A3M1 22-286): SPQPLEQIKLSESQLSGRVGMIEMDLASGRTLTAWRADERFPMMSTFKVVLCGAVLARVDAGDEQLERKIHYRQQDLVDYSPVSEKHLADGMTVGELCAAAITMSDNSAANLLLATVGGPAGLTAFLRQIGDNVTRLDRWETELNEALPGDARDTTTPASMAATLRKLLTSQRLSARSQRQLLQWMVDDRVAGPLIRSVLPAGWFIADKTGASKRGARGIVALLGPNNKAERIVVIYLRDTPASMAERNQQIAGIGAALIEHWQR
Experiment: β-Lactamase inhibition, SHV-5

Take a look at these entries with their results.
N=C(N)NCCN1CCN(CC(=O)N[C@H]2Cc3cccc(C(=O)O)c3OB2O)C(=O)C1 [Example 38] = 0.1 to 1 µM
CN1CCC(C(=O)N[C@H]2Cc3cccc(C(=O)O)c3OB2O)(N(C)C)CC1 [Example 51] = 1 to 10 µM

Kindly give each listed record's IC50.
1. NCC1CCN(CC(=O)N[C@H]2Cc3cccc(C(=O)O)c3OB2O)CC1 [Example 5]
2. CN(CC(=O)N[C@H]1Cc2cccc(C(=O)O)c2OB1O)C1CCNCC1 [Example 43]
3. O=C(O)CN1CCN(CC(=O)N[C@H]2Cc3cccc(C(=O)O)c3OB2O)CC1 [Example 25]
4. NCCC(=O)NC1CCN(CC(=O)N[C@H]2Cc3cccc(C(=O)O)c3OB2O)CC1 [Example 27]

## Output
1: 1 to 10 µM; 2: < 0.1 µM; 3: < 0.1 µM; 4: 0.1 to 1 µM

Cited source for all entries: patent US10294248B2
